Target: sortase A (SrtA), WT-SrtA (Staphylococcus aureus)
Construct: SrtA△N59, recombinant, GST tag cleaved
Sequence (Q2FV99 60-206): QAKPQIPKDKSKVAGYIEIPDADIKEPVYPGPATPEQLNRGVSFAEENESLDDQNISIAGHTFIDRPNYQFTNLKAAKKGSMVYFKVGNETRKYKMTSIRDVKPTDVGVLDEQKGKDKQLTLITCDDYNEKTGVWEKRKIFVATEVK
Test: fluorescence quenching (KA); also FRET inhibition of purified SrtA, IC50 […]
measure: Kd (nM)
All answers are understood in nM, so give the number only.

Entry under test: CCCC(=O)c1c(O)c(CC2=C(O)C(C)(C)C(=O)C(C(C)=O)=C2O)c(O)c(Cc2c(O)c(CC3=C(O)C(C)(C)C(=O)C(C(C)=O)=C3O)c(O)c(C(=O)CCC)c2O)c1O . Its Kd was 2180
